Let's look at some molecules and their measured viscosity.
# condition set: 323.15 K; 101.33 kPa; Liquid; Concentric cylinders viscometry
Return type: number; implicit unit mPa·s.

Worked cases, answers included:
| molecule | uom | viscosity |
| --- | --- | --- |
| CCCCCCCCCC[n+]1ccccc1.O=S(=O)([N-]S(=O)(=O)C(F)(F)F)C(F)(F)F [1-decylpyridinium bis(trifluoromethylsulfonyl)imide] | mPa·s | 47.46 |
| CCCC[n+]1ccccc1.O=S(=O)([N-]S(=O)(=O)C(F)(F)F)C(F)(F)F [1-butylpyridinium bis[(trifluoromethyl)sulfonyl]imide] | mPa·s | 23.4 |
| CCCCCCCCCCCC[n+]1ccccc1.O=S(=O)([N-]S(=O)(=O)C(F)(F)F)C(F)(F)F [1-dodecylpyridinium bis(trifluoromethylsulfonyl)imide] | mPa·s | 58.88 |

// next item, viscosity requested
// recorded viscosity for CCCCCCCC[n+]1ccccc1.O=S(=O)([N-]S(=O)(=O)C(F)(F)F)C(F)(F)F [1-octylpyridinium bis((trifluoromethyl)sulfonyl)amide] : 37.91

Origin of the recorded values: the NIST ThermoML archive (doi:10.1016/j.jct.2009.11.004)
